- experimental target: Kras and SOS1 (biotin-tagged human Kras loaded with GDP, His-tagged human SOS1) (Homo sapiens, UniProt P01116, G12D)
- Construct: made in house; host or cells: E. coli (stated for Kras only)
- Sequence (P01116 1-188 isoform P01116-2 G12D): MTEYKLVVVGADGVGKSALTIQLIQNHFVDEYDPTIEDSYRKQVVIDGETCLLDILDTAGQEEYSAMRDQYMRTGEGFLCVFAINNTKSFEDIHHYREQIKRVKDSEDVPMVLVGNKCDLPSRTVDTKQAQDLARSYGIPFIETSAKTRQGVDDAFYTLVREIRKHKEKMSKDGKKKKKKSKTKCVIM
- experiment notes: Protein-protein interaction inhibition between Kras and SOS1 (KrasGl2D-SOS PPI) using AlphaScreen
- Type: binding
- measurement conditions: AlphaScreen; biotin-tagged human Kras loaded with GDP, His-tagged human SOS1; read-out: KRAS G12D-SOS PPI IC50
Starred links: 1 amine or outer side, 2 acyl side, 3 side chain; linkers in the order of their positions; H or OH if unused. Positions of bridges follow the written chain, without caps; N, C: chain ends. Non-standard residues stand in square brackets, D forms with d. Residues, ends and D or L forms follow the SMILES beside them. *: point of attachment. hPhe(3-Cl-4-CF3) = N[C@@H](CCc1ccc(C(F)(F)F)c(Cl)c1)C(=O)O; hPhe(3-F,4-CF3) = N[C@@H](CCc1ccc(C(F)(F)F)c(F)c1)C(=O)O; hPhe(4-CF3) = N[C@@H](CCc1ccc(C(F)(F)F)cc1)C(=O)O; NMePhe(4-CN) = CN[C@@H](Cc1ccc(C#N)cc1)C(=O)O; NMePhe(4-Cl) = CN[C@@H](Cc1ccc(Cl)cc1)C(=O)O; NMePhe(4-Me) = CN[C@@H](Cc1ccc(C)cc1)C(=O)O; NMedβ3hAla = C[C@H](CC(=O)[*:2])N(C)[*:1]; NMeGly(cPent) = CN[C@H](C(=O)O)C1CCCC1; Phe(3-I) = N[C@@H](Cc1cccc(I)c1)C(=O)O; Pro(4,4-F2) = O=C(O)[C@@H]1CC(F)(F)CN1; NMeAla(cPr) = CN[C@@H](CC1CC1)C(=O)O; NMeCha = CN[C@@H](CC1CCCCC1)C(=O)O; NMeChg = CN[C@H](C(=O)O)C1CCCCC1; NMeD = CN[C@@H](CC(=O)O)C(=O)O; NMeL = CN[C@@H](CC(C)C)C(=O)O; NMeV = CN[C@H](C(=O)O)C(C)C; d(β3hA) = C[C@@H](N)CC(=O)O; Pip = O=C(O)[C@@H]1CCCCN1; NMeA = CN[C@@H](C)C(=O)O; NMeAib = CNC(C)(C)C(=O)O; Nle = CCCC[C@H](N)C(=O)O; Piperidide = C1CCN(*)CC1; Ac5c = NC1(C(=O)O)CCCC1; Aze = O=C(O)[C@@H]1CCN1; Ac4c = NC1(C(=O)O)CCC1; Aib = CC(C)(N)C(=O)O; Sar = CNCC(=O)O
Under this convention, Met denotes IC50 strictly below 7 nM and Not met denotes IC50 at or above 7 nM.

CC[C@H](C)[C@@H]1NC(=O)[C@H](C)N(C)C(=O)C[C@@H](C)NC(=O)[C@H](C2CCCC2)N(C)C(=O)C2(CCCC2)NC(=O)[C@@H]2CCCN2C(=O)[C@H](CCc2ccc(C(F)(F)F)c(Cl)c2)NC(=O)[C@H]2CCCN2C(=O)[C@H](Cc2ccc(C)cc2)N(C)C(=O)[C@@H]2CCN2C(=O)[C@H](C)N(C)C1=O [Compound 1540] (cyclo([Ac5c][NMeGly(cPent)][d(β3hA)][NMeA]I[NMeA][Aze][NMePhe(4-Me)][dP][hPhe(3-Cl-4-CF3)]P)) = Not met

Q) Given the entry CC[C@H](C)[C@@H]1NC(=O)[C@H](CC(C)C)N(C)C(=O)C[C@@H](C(=O)N2CCCCC2)N(C)C(=O)[C@H](C2CCCCC2)N(C)C(=O)C2(CCCC2)NC(=O)[C@@H]2CCCN2C(=O)[C@H](CCc2ccc(C(F)(F)F)c(Cl)c2)NC(=O)CN(C)C(=O)[C@H](CC2CC2)N(C)C(=O)CN(C)C(=O)CN(C)C1=O [Compound 234] ([NMeL]I[Sar][Sar][NMeAla(cPr)][Sar][hPhe(3-Cl-4-CF3)]P[Ac5c][NMeChg][NMeD]-Piperidide; lactam N-11) , would its reported IC50 be below 7 nM?
A) Met

Q) Another compound: CC[C@H](C)[C@@H]1NC(=O)[C@@H]2CCCCN2C(=O)C[C@@H](C)NC(=O)[C@H](CC(C)C)N(C)C(=O)C(C)(C)NC(=O)[C@H](CC(C)C)N(C)C(=O)[C@H](CCc2ccc(C(F)(F)F)cc2)NC(=O)CN(C)C(=O)[C@H](CC2CCCCC2)N(C)C(=O)CN(C)C(=O)CN(C)C1=O [Compound 31] (cyclo([Aib][NMeL][d(β3hA)][Pip]I[Sar][Sar][NMeCha][Sar][hPhe(4-CF3)][NMeL]))
A) Not met

Q) Another compound: CC[C@H](C)[C@@H]1NC(=O)[C@H](CC(C)C)N(C)C(=O)C[C@@H](C)N(C)C(=O)[C@H](C(C)C)N(C)C(=O)C2(CCCC2)NC(=O)[C@@H]2CCCN2C(=O)[C@H](CCc2ccc(C(F)(F)F)c(Cl)c2)NC(=O)CN(C)C(=O)[C@H](Cc2ccc(C#N)cc2)N(C)C(=O)CN(C)C(=O)CN(C)C1=O [Compound 888] (cyclo([Ac5c][NMeV][NMedβ3hAla][NMeL]I[Sar][Sar][NMePhe(4-CN)][Sar][hPhe(3-Cl-4-CF3)]P))
A) Met

Q) Another compound: CC[C@H](C)[C@@H]1NC(=O)[C@H](CC(C)C)N(C)C(=O)C[C@@H](C)N(C)C(=O)[C@H](C2CCCCC2)N(C)C(=O)C2(CCC2)NC(=O)[C@@H]2CC(F)(F)CN2C(=O)[C@H](CCc2ccc(C(F)(F)F)c(Cl)c2)NC(=O)CN(C)C(=O)[C@H](Cc2ccc(C)cc2)N(C)C(=O)CN(C)C(=O)CN(C)C1=O [Compound 375] (cyclo([Ac4c][NMeChg][NMedβ3hAla][NMeL]I[Sar][Sar][NMePhe(4-Me)][Sar][hPhe(3-Cl-4-CF3)][Pro(4,4-F2)]))
A) Not met

Q) Another compound: CCCC[C@@H]1NC(=O)C(C)(C)N(C)C(=O)[C@H](CCCC)NC(=O)[C@H](Cc2cccc(I)c2)NC(=O)CN(C)C(=O)[C@H](Cc2ccc(Cl)cc2)N(C)C(=O)CN(C)C(=O)CN(C)C(=O)[C@H]([C@@H](C)CC)NC(=O)[C@H](CC(C)C)N(C)C(=O)C[C@@H](C(=O)N2CCCCC2)N(C)C1=O [Compound 765] ([NMeL]I[Sar][Sar][NMePhe(4-Cl)][Sar][Phe(3-I)][Nle][NMeAib][Nle][NMeD]-Piperidide; lactam N-11)
A) Not met

Q) Another compound: CC[C@H](C)[C@@H]1NC(=O)[C@H](C(C)C)N(C)C(=O)C[C@@H](C)NC(=O)[C@H](CC(C)C)N(C)C(=O)C2(CCCC2)NC(=O)[C@H](CC(C)C)N(C)C(=O)[C@H](CCc2ccc(C(F)(F)F)c(F)c2)NC(=O)CN(C)C(=O)[C@H](Cc2ccc(Cl)cc2)N(C)C(=O)[C@@H]2CCN2C(=O)CN(C)C1=O [Compound 418] (cyclo([Ac5c][NMeL][d(β3hA)][NMeV]I[Sar][Aze][NMePhe(4-Cl)][Sar][hPhe(3-F,4-CF3)][NMeL]))
A) Not met

Q) Another compound: CC[C@H](C)[C@@H]1NC(=O)[C@H](CC(C)C)N(C)C(=O)C[C@@H](C)NC(=O)[C@H](C2CCCC2)N(C)C(=O)C2(CCC2)NC(=O)[C@@H]2CCCN2C(=O)[C@H](CCc2ccc(C(F)(F)F)c(Cl)c2)NC(=O)CN(C)C(=O)[C@H](Cc2ccc(C)cc2)N(C)C(=O)CN(C)C(=O)CN(C)C1=O [Compound 1498] (cyclo([Ac4c][NMeGly(cPent)][d(β3hA)][NMeL]I[Sar][Sar][NMePhe(4-Me)][Sar][hPhe(3-Cl-4-CF3)]P))
A) Met
